Numbers sourced from patent US6737383B1.

- System: crabgrass
- Protocol text: Test B pre/postemergence crabgrass
- Type: in vivo, Digitaria sanguinalis
- Run conditions: Postemergence, Rate 125 g/ha; scale of 0 to 10 where 0 is no effect and 10 is complete control
Readout type: Crabgrass plant response rating

>>> reported("CC(C)N(C(=O)n1oc(=O)n(Cc2ccccc2Cl)c1=O)c1ccc(F)cc1 [Compound 140]")
1
>>> reported("C#CC=CC(C)(C)n1c(=O)on(C(=O)N(c2ccccc2)C(C)C)c1=O [Compound 655]")
8
>>> reported("CC[C@H](C)n1c(=O)on(C(=O)N(c2ccc(F)cc2F)C(C)C)c1=O [Compound 666]")
9
>>> reported("C#CCn1c(=O)on(C(=O)N(c2ccccc2)C(C)C)c1=O [Compound 754]")
5
>>> reported("Cc1nn(C)c(Cl)c1-n1c(=O)on(C(=O)N(c2ccccc2)C(C)C)c1=O [Compound 121]")
6
>>> reported("CC(C)N(C(=O)n1oc(=O)n(C2CCCCC2)c1=O)c1ccc(F)cc1F [Compound 115]")
0
>>> reported("C=CCn1c(=O)on(C(=O)N(c2ccc(F)cc2F)C(C)C)c1=O [Compound 151]")
9
>>> reported("CC(C)N(C(=O)n1oc(=O)n(C[C@H](C)Cl)c1=O)c1ccc(Cl)cc1 [Compound 748]")
3
